Every entry's value here was drawn from patent US11279733B2.

System: E. coli ATCC 25922
condition info: ATCC 25922
Positions of bridges follow the written chain, without caps; N, C: chain ends. Non-standard residues stand in square brackets, D forms with d. Residues, ends and D or L forms follow the SMILES beside them. *: point of attachment. dPhe(4-CN) = N#Cc1ccc(C[C@@H](N)C(=O)O)cc1; Decanoyl(3R-OH) = CCCCCCC[C@@H](O)CC(=O)*; Octanoyl(3-OH) = CCCCCC(O)CC(=O)*; dDab = NCC[C@@H](N)C(=O)O; Dab = NCC[C@H](N)C(=O)O; Dap = NC[C@H](N)C(=O)O
MIC E. coli ATCC 25922 overview
State just the number; it will be interpreted in µg/mL.

# example entries with known answers
compound	measured target	MIC E. coli ATCC 25922 / µg/mL
CCCCCC(O)CC(=O)N[C@H](CCN)C(=O)N[C@H]1CCNC(=O)[C@H](CC(C)C)NC(=O)[C@H](CCN)NC(=O)[C@H](CCN)NC(=O)[C@H](CC(C)C)NC(=O)[C@@H](Cc2ccccc2)NC(=O)[C@H](CCN)NC1=O (stereo partly drawn) [compound 5012] ({Octanoyl(3-OH)}-[dDab][Dab][Dab][dF]L[Dab][Dab]L; lactam 2-C)	E. coli ATCC 25922	32
CCCCCCC[C@@H](O)CC(=O)N[C@H](CCN)C(=O)N[C@H]1CCNC(=O)[C@H](CC(C)C)NC(=O)[C@H](CN)NC(=O)[C@H](CCN)NC(=O)[C@H](CC(C)C)NC(=O)[C@@H](Cc2ccccc2)NC(=O)[C@H](CCN)NC1=O [compound 987] ({Decanoyl(3R-OH)}-[dDab][Dab][Dab][dF]L[Dab][Dap]L; lactam 2-C)	E. coli ATCC 25922	8

Now for another entry.
Form field: reported MIC E. coli ATCC 25922 of CCCCCCC[C@@H](O)CC(=O)N[C@H](CCN)C(=O)N[C@H]1CCNC(=O)[C@H](Cc2c[nH]c3ccccc23)NC(=O)[C@H](CCN)NC(=O)[C@H](CCN)NC(=O)[C@H](CC(C)C)NC(=O)[C@@H](Cc2ccc(C#N)cc2)NC(=O)[C@H](CCN)NC1=O [compound 8105] ({Decanoyl(3R-OH)}-[dDab][Dab][Dab][dPhe(4-CN)]L[Dab][Dab]W; lactam 2-C)
4

* * *

MIC, K. pneumoniae Cl Koprana 10065 0661:1, PmxR overview
Test system: K. pneumoniae GN_102 PmxR
condition info: GN 102 PmxR
Positions of bridges follow the written chain, without caps; N, C: chain ends. Non-standard residues stand in square brackets, D forms with d. Residues, ends and D or L forms follow the SMILES beside them. *: point of attachment. Decanoyl(3R-OH) = CCCCCCC[C@@H](O)CC(=O)*; dDab = NCC[C@@H](N)C(=O)O; Dab = NCC[C@H](N)C(=O)O; Dap = NC[C@H](N)C(=O)O

molecule	measured target	assay result
CCCCCCC[C@@H](O)CC(=O)N[C@H](CCN)C(=O)N[C@H]1CCNC(=O)[C@H](CC(C)C)NC(=O)[C@H](CCN)NC(=O)[C@H](CCN)NC(=O)[C@H](CC(C)C)NC(=O)[C@@H](Cc2ccccc2)NC(=O)[C@H](CCCNC(=N)N)NC1=O [compound 8634] ({Decanoyl(3R-OH)}-[dDab][Dab]R[dF]L[Dab][Dab]L; lactam 2-C)	K. pneumoniae GN_102 PmxR	4 µg/mL

Now for another entry.
Form field: reported MIC, K. pneumoniae Cl Koprana 10065 0661:1, PmxR of CCCCCCC[C@@H](O)CC(=O)N[C@H](CCN)C(=O)N[C@H]1CCNC(=O)[C@H](CC(C)C)NC(=O)[C@H](CCN)NC(=O)[C@H](CN)NC(=O)[C@H](CC(C)C)NC(=O)[C@@H](Cc2ccccc2)NC(=O)[C@H](CCN)NC1=O [compound 990] ({Decanoyl(3R-OH)}-[dDab][Dab][Dab][dF]L[Dap][Dab]L; lactam 2-C)
4 µg/mL

* * *

System: K. pneumoniae GN_106, PmxR
condition info: GN 106, PmxR
Positions of bridges follow the written chain, without caps; N, C: chain ends. Non-standard residues stand in square brackets, D forms with d. Residues, ends and D or L forms follow the SMILES beside them. *: point of attachment. Decanoyl(3R-OH) = CCCCCCC[C@@H](O)CC(=O)*; d(hPhe) = N[C@H](CCc1ccccc1)C(=O)O; Undecanoyl = CCCCCCCCCCC(=O)*; dDab = NCC[C@@H](N)C(=O)O; dDap = NC[C@@H](N)C(=O)O; Dab = NCC[C@H](N)C(=O)O
readout name: MIC K. pneumoniae GN_106, PmxR (µg/mL)
State just the number; it will be interpreted in µg/mL.

molecule	measured target	MIC K. pneumoniae GN_106, PmxR [µg/mL]
CCCCCCCCCCC(=O)N[C@H](CN)C(=O)N[C@H]1CCNC(=O)[C@H](CC(C)C)NC(=O)[C@H](CCN)NC(=O)[C@H](CCN)NC(=O)[C@H](CC(C)C)NC(=O)[C@@H](Cc2ccccc2)NC(=O)[C@H](CCN)NC1=O [compound 9296] (Undecanoyl-[dDap][Dab][Dab][dF]L[Dab][Dab]L; lactam 2-C)	K. pneumoniae GN_106, PmxR	4

Now for another entry.
Form field: reported MIC K. pneumoniae GN_106, PmxR of CCCCCCC[C@@H](O)CC(=O)N[C@H](CCN)C(=O)N[C@H]1CCNC(=O)[C@H](Cc2c[nH]c3ccccc23)NC(=O)[C@H](CCN)NC(=O)[C@H](CCN)NC(=O)[C@H](CC(C)C)NC(=O)[C@@H](CCc2ccccc2)NC(=O)[C@H](CCN)NC1=O [compound 8129] ({Decanoyl(3R-OH)}-[dDab][Dab][Dab][d(hPhe)]L[Dab][Dab]W; lactam 2-C)
4

* * *

Tested on: E. coli ATCC 25922
condition info: ATCC 25922
Positions of bridges follow the written chain, without caps; N, C: chain ends. Non-standard residues stand in square brackets, D forms with d. Residues, ends and D or L forms follow the SMILES beside them. *: point of attachment. Decanoyl(3R-OH) = CCCCCCC[C@@H](O)CC(=O)*; Igl = N[C@H](C(=O)O)C1Cc2ccccc2C1; Undecanoyl = CCCCCCCCCCC(=O)*; X13 = CCCCCCCCCC(O)CC(=O)*; dDab = NCC[C@@H](N)C(=O)O; dDap = NC[C@@H](N)C(=O)O; Dab = NCC[C@H](N)C(=O)O
label 1 if MIC E. coli ATCC 25922 is below 8 mg/L. label 0 if not; exact matches included in label 0.

Field: example entries. Status: answers known.
compound	group
CCCCCCC[C@@H](O)CC(=O)N[C@H](CN)C(=O)N[C@H]1CCNC(=O)[C@H](Cc2c[nH]c3ccccc23)NC(=O)[C@H](CCN)NC(=O)[C@H](CCN)NC(=O)[C@H](CC(C)C)NC(=O)[C@@H](Cc2ccccc2)NC(=O)[C@H](CCN)NC1=O [compound 8886] ({Decanoyl(3R-OH)}-[dDap][Dab][Dab][dF]L[Dab][Dab]W; lactam 2-C)	label 1
CCCCCCC[C@@H](O)CC(=O)N[C@@H](CCN)C(=O)N[C@@H]1CCNC(=O)[C@H](CC(C)C)NC(=O)[C@H](CCN)NC(=O)[C@H](CCN)NC(=O)[C@H](C)NC(=O)[C@@H](Cc2ccccc2)NC(=O)[C@H](CCN)NC1=O [compound 6660] ({Decanoyl(3R-OH)}-[Dab][dDab][Dab][dF]A[Dab][Dab]L; lactam 2-C)	label 0
CCCCCCC[C@@H](O)CC(=O)N[C@H](CCN)C(=O)N[C@H]1CCNC(=O)[C@H](CC(C)C)NC(=O)[C@H](CCN)NC(=O)[C@H](CCN)NC(=O)[C@@H](Cc2ccccc2)NC(=O)[C@H](CC(C)C)NC(=O)[C@H](CCN)NC1=O [compound 9194] ({Decanoyl(3R-OH)}-[dDab][Dab][Dab]L[dF][Dab][Dab]L; lactam 2-C)	label 0
CCCCCCCCCC(O)CC(=O)N[C@H](CCN)C(=O)N[C@H]1CCNC(=O)[C@H](CC(C)C)NC(=O)[C@H](CCN)NC(=O)[C@H](CCN)NC(=O)[C@H](CC(C)C)NC(=O)[C@@H](Cc2ccccc2)NC(=O)[C@H](CCN)NC1=O (stereo partly drawn) [compound 5014] (X13-[dDab][Dab][Dab][dF]L[Dab][Dab]L; lactam 2-C)	label 1
CCCCCCC[C@@H](O)CC(=O)N[C@H](CN)C(=O)N[C@H]1CCNC(=O)[C@H]([C@@H](C)O)NC(=O)[C@H](CCN)NC(=O)[C@H](CCN)NC(=O)[C@H](CC(C)C)NC(=O)[C@@H](Cc2ccccc2)NC(=O)[C@H](CCN)NC1=O [compound 6395] ({Decanoyl(3R-OH)}-[dDap][Dab][Dab][dF]L[Dab][Dab]T; lactam 2-C)	label 1

Here's an entry: CCCCCCC[C@@H](O)CC(=O)N[C@H](CCN)C(=O)N[C@H]1CCNC(=O)[C@H](CCCNC(=N)N)NC(=O)[C@H](CCN)NC(=O)[C@H](CCN)NC(=O)[C@H](CC(C)C)NC(=O)[C@@H](Cc2ccccc2)NC(=O)[C@H](CCN)NC1=O [compound 6508] ({Decanoyl(3R-OH)}-[dDab][Dab][Dab][dF]L[Dab][Dab]R; lactam 2-C) . Is its MIC E. coli ATCC 25922 below 8 mg/L?
label 0

Same lookup for CCCCCCC[C@@H](O)CC(=O)N[C@H](CCN)C(=O)N[C@H]1CCNC(=O)[C@H](C2Cc3ccccc3C2)NC(=O)[C@H](CCN)NC(=O)[C@H](CCN)NC(=O)[C@H](CC(C)C)NC(=O)[C@@H](Cc2ccccc2)NC(=O)[C@H](CCN)NC1=O [compound 8912] ({Decanoyl(3R-OH)}-[dDab][Dab][Dab][dF]L[Dab][Dab][Igl]; lactam 2-C) , please.
label 1

Same lookup for CCCCCCCCCCC(=O)N[C@H](CN)C(=O)N[C@H]1CCNC(=O)[C@H](CC(C)C)NC(=O)[C@H](CCN)NC(=O)[C@H](CCN)NC(=O)[C@H](CC(C)C)NC(=O)[C@@H](Cc2ccccc2)NC(=O)[C@H](CCN)NC1=O [compound 9296] (Undecanoyl-[dDap][Dab][Dab][dF]L[Dab][Dab]L; lactam 2-C) , please.
label 1

Same lookup for CCCCCCC[C@@H](O)CC(=O)N[C@H](CCN)C(=O)N[C@H]1CCNC(=O)[C@H](CC(C)C)NC(=O)[C@H](CCN)NC(=O)[C@H](CCN)NC(=O)[C@@H](CC(C)C)NC(=O)[C@H](Cc2ccccc2)NC(=O)[C@H](CCN)NC1=O [compound 8640] ({Decanoyl(3R-OH)}-[dDab][Dab][Dab]F[dL][Dab][Dab]L; lactam 2-C) , please.
label 0
